- Test system: HOP-62
- assayExplanation: NCI60 five-dose screen, Non-small Cell Lung Cancer
- Format: cell-based
- appliedConditions: Homo sapiens; HOP-62, Non-small Cell Lung Cancer; five-dose screen; read-out: GI50
Assignment: determine reported GI50 for the given compounds.
One number for each entry, in µM.

Some solved cases for reference:
[[record]]
compound = "CC[C@]12C=CCN3CC[C@@]4(c5ccc(OC)cc5N(C)[C@H]4[C@@](O)(C(=O)OC)[C@@H]1OC(=O)CCCN1CCN(Cc4ccc(C(F)(F)F)cc4)CC1)[C@@H]32 [Compound 23]"
recordedresult = 1.74

[[record]]
compound = "CC[C@]12C=CCN3CC[C@@]4(c5ccc(OC)cc5N(C)[C@H]4[C@@](O)(C(=O)OC)[C@@H]1OC(=O)CCC(=O)N1CCN(c4ccc(C(F)(F)F)cc4)CC1)[C@@H]32 [Compound 28]"
recordedresult = 5.5

[[record]]
compound = "CC[C@]12C=CCN3CC[C@@]4(c5ccc(OC)cc5N(C)[C@H]4[C@@](O)(C(=O)OC)[C@@H]1OC(=O)CCCN1CCN(c4ccc(C(F)(F)F)cc4)CC1)[C@@H]32 [Compound 22]"
recordedresult = 3.02


Quick batch: GI50 for everything below.
1. CC[C@]12C=CCN3CC[C@@]4(c5ccc(OC)cc5N(C)[C@H]4[C@@](O)(C(=O)OC)[C@@H]1OC(=O)CCC(=O)N1CCN(Cc4ccc(C(F)(F)F)cc4)CC1)[C@@H]32 [Compound 29]
2. CC[C@]12C=CCN3CC[C@@]4(c5ccc(OC)cc5N(C)[C@H]4[C@@](O)(C(=O)OC)[C@@H]1OC(=O)CCCN1CCN(Cc4ccc(F)cc4)CC1)[C@@H]32 [Compound 24]

Response line:
[14.1, 10.2]
